- Test system: CCRF-CEM leukemia
- assayInfo: NCI tumour cell line growth inhibition, 48 h; in the data active = GI50 below about 0.43 µM; inactive = the rest
*1 amine or outer side, *2 acyl side, *3 side chain or, on linkers, in order; H or OH if unused. Where a SMILES comes first, the peptide text is derived from it. Bridges are numbered along the chain shown (N, C = ends). [ ]: non-standard residue; d: D form. The star is where a group is joined. Phe(3-Me) = Cc1cccc(C[C@H](N)C(=O)O)c1; NH(4-Cl-2-F-phenyl) = Fc1cc(Cl)ccc1N*; Pro(4R-Me) = C[C@H]1CN[C@H](C(=O)O)C1; Hyp = O=C(O)[C@@H]1C[C@@H](O)CN1; aThr = C[C@H](O)[C@H](N)C(=O)O; Pip = O=C(O)[C@@H]1CCCCN1; CO = O=C([*:1])[*:2]
Would you mind answering with one of these outcomes? active, inactive

Reference set, count: 5
{"columns": ["compound", "measurementTarget", "assignedCategory"],
 "data": [
  ["COc1ccc(C2=C(c3cn(C)c4ccccc34)C(=O)NC2=O)cc1OC", "CCRF-CEM leukemia", "inactive"],
  ["CCc1ccc(CCC(=O)Nc2ncc(Cc3ccccc3)s2)o1", "CCRF-CEM leukemia", "inactive"],
  ["Cn1c2ccccc2c2nnc(N/N=C/c3ccccn3)nc21", "CCRF-CEM leukemia", "active"],
  ["CO/N=C1/NC(=O)/C(=C/c2ccc3ncccc3c2)S1", "CCRF-CEM leukemia", "inactive"],
  ["O=C(N/N=C/c1ccc(O)cc1O)c1ccc(Nc2ccnc(C(F)(F)F)c2)cc1", "CCRF-CEM leukemia", "active"]
]}

Problem: Any idea what this test logged for `COc1ccc(C(=O)c2cc(OC)c(OC)c(OC)c2)cc1O` ?
Solution: active

Problem: Any idea what this test logged for `N#CC(C#N)=CN1CCN(C(=O)c2ccccc2)C1=S` ?
Solution: inactive

Problem: Any idea what this test logged for `Cc1nc(Nc2ccc(F)c(Cl)c2)sc1C(=O)O` ?
Solution: inactive

Problem: Any idea what this test logged for `CN1CCN(Cc2ccc(NC(=O)c3[nH]ncc3Nc3ncnc4c3CCC4)cc2)CC1` ?
Solution: inactive

Problem: Any idea what this test logged for N#CSCC1CC(O)(c2ccccc2)C(c2ccccc2)C(c2ccc(F)cc2)O1 (stereo unspecified) ?
Solution: inactive

Problem: Any idea what this test logged for Cc1cccc(C[C@H](NC(=O)Nc2ccc(Cl)cc2F)C(=O)N[C@@H]2C(=O)N3C[C@H](O)C[C@H]3C(=O)N3CCCC[C@H]3C(=O)N[C@@H](C)C(=O)N3C[C@H](C)C[C@H]3C(=O)O[C@H]2C)c1 ({NH(4-Cl-2-F-phenyl)-CO}-[Phe(3-Me)][aThr][Hyp][Pip]A[Pro(4R-Me)]; ester 2-C) ?
Solution: inactive

Problem: Any idea what this test logged for `O=C(O)c1ccc(NS(=O)(=O)c2cccc3cccnc23)cc1` ?
Solution: inactive

Problem: Any idea what this test logged for `O=C1C(Cl)=C(N2CCOCC2)C(=O)c2ccccc21` ?
Solution: inactive

Problem: Any idea what this test logged for `O=C(Nc1ccncc1)C(=O)c1cn(S(=O)(=O)c2ccccc2F)c2ccccc12` ?
Solution: inactive

Problem: Any idea what this test logged for `NC(=NC1CCCCCC1)c1ccc(N2CCN(c3ccc(C(N)=NC4CCCCCC4)cc3)CC2)cc1` ?
Solution: inactive

Problem: Any idea what this test logged for `CCOC(=O)[C@@H](C)C[C@H](Cc1ccccc1)NC(=O)c1csc([C@@H](C[C@H](C(C)C)N(C)C(=O)[C@H](CCC(C)C)NC(=O)[C@H]2CCCCN2C)OC(C)=O)n1` ?
Solution: active

Problem: Any idea what this test logged for `COc1ccc(/C=C(\C#N)c2cc(OC)c3c(c2)OCO3)cc1` ?
Solution: active

Problem: Any idea what this test logged for CCC(C)/C=C(C)/C=C/C(=O)c1c(O)c(-c2ccc(O)cc2)c[nH]c1=O (stereo unspecified) ?
Solution: inactive

Problem: Any idea what this test logged for `O=C(Nc1cc(Cl)ccc1O)c1cccc(NC2=C(Cl)C(=O)N(Cc3ccccc3)C2=O)c1` ?
Solution: inactive

Problem: Any idea what this test logged for `COc1cc2cnc3c(c2cc1OC)Cc1cc2c(cc1-3)OCO2` ?
Solution: active

Problem: Any idea what this test logged for `CCc1nc2ccc(Cc3ccc(C(=O)NO)cc3)cc2c(=O)n1CCc1ccccc1` ?
Solution: inactive
